The values you see were collected from patent US10323036B2.

subject_of_test: human TYK2 (JH2domain-pseudokinase) (Homo sapiens (Human), UniProt P29597)
Sequence (P29597 556-888): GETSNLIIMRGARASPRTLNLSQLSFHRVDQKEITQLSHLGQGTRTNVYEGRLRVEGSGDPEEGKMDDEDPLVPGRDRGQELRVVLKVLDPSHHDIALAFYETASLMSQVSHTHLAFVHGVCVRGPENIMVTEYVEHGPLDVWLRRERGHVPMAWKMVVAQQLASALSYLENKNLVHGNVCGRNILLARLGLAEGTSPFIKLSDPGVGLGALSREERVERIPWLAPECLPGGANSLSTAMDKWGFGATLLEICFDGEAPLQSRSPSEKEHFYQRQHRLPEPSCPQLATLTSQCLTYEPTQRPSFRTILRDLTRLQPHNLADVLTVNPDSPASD
assay_details: TYK2 JH2 Domain Binding Assay (KINOMEscan)
settings: Table 4, JH2 binding assay; read-out: JH2 Kd
Reported Kd values are given for each entry in this list.

[[record]]
molecule = "COc1c(Nc2cc(Nc3ccc(C)nn3)nc3[nH]n(C)c(=O)c23)cccc1-c1nnn(C)n1 [Compound I-10]"
subject_of_test = "human TYK2 (JH2domain-pseudokinase) (Homo sapiens (Human), UniProt P29597)"
val = "< 0.1 nM"

[[record]]
molecule = "COc1c(Cl)cccc1Nc1cc(Nc2ccc(N3CCCC3=O)c(C#N)n2)nc2[nH]n(C)c(=O)c12 [Compound I-134]"
subject_of_test = "human TYK2 (JH2domain-pseudokinase) (Homo sapiens (Human), UniProt P29597)"
val = "0.1 to 0.5 nM"

[[record]]
molecule = "Cc1ccc(Nc2cc(Nc3ccc(F)cc3S(C)(=O)=O)c3c(=O)n(C)[nH]c3n2)nn1 [Compound I-198]"
subject_of_test = "human TYK2 (JH2domain-pseudokinase) (Homo sapiens (Human), UniProt P29597)"
val = "0.1 to 0.5 nM"

[[record]]
molecule = "COc1c(Nc2cc(Nc3ccc(C)cn3)nc3[nH]n(C)c(=O)c23)cccc1-c1ncn(C)n1 [Compound I-16]"
subject_of_test = "human TYK2 (JH2domain-pseudokinase) (Homo sapiens (Human), UniProt P29597)"
val = "0.1 to 0.5 nM"

[[record]]
molecule = "COc1c(Nc2cc(Nc3ccc(N4CCCCC4)cn3)nc3[nH]n(C)c(=O)c23)cccc1-c1nnn(C)n1 [Compound I-11]"
subject_of_test = "human TYK2 (JH2domain-pseudokinase) (Homo sapiens (Human), UniProt P29597)"
val = "> 10 nM"

[[record]]
molecule = "COc1c(Cl)cccc1Nc1cc(Nc2ccc(C#N)cn2)nc2[nH]n(C)c(=O)c12 [Compound I-98]"
subject_of_test = "human TYK2 (JH2domain-pseudokinase) (Homo sapiens (Human), UniProt P29597)"
val = "0.5 to 1 nM"


Data request: Consider the molecule Cn1[nH]c2nc(Nc3cccc(C(F)(F)F)n3)cc(Nc3ccc(Cl)cc3S(C)(=O)=O)c2c1=O [Compound I-209] and give its measured Kd.
Data returned: 0.5 to 1 nM

Data request: What about COC1CN(c2cccc(Nc3cc(Nc4ccccc4S(C)(=O)=O)c4c(=O)n(C)[nH]c4n3)n2)C1 [Compound I-140] ?
Data returned: 1 to 10 nM

Data request: What about Cn1[nH]c2nc(NC(=O)C3CC3(F)F)cc(Nc3ccc(C4CC4)cc3S(C)(=O)=O)c2c1=O (centres unmarked) [Compound I-239] ?
Data returned: 0.1 to 0.5 nM

Data request: What about COc1c(Nc2cc(Nc3ccc(C#N)cn3)nc3[nH]n(C)c(=O)c23)cccc1-c1ncn(C)n1 [Compound I-25] ?
Data returned: 0.1 to 0.5 nM

Data request: What about COc1c(C#N)cccc1Nc1cc(Nc2ccc(C#N)cn2)nc2[nH]n(C)c(=O)c12 [Compound I-41] ?
Data returned: > 10 nM

Data request: What about COc1c(Cl)cccc1Nc1cc(Nc2cnc(C(C)C)c(C#N)n2)nc2[nH]n(C)c(=O)c12 [Compound I-158] ?
Data returned: > 10 nM

Data request: What about Cc1cc(Nc2cc(Nc3ccccc3S(C)(=O)=O)c3c(=O)n(C)[nH]c3n2)nc(C)n1 [Compound I-108] ?
Data returned: 0.1 to 0.5 nM

Data request: What about COc1c(F)cccc1Nc1cc(Nc2cncc(C#N)n2)nc2[nH]n(C)c(=O)c12 [Compound I-85] ?
Data returned: 0.5 to 1 nM

----------
Reported Kd values are given for each entry in this list.
subject_of_test: human TYK2 (JH2domain-pseudokinase) (Homo sapiens (Human))
assay_details: TYK2 JH2 Domain Binding Assay (KINOMEscan)
settings: Table 4, JH2 binding assay; read-out: JH2 Kd

[[record]]
molecule = "COc1c(F)cccc1Nc1cc(Nc2ccc(C)cn2)nc2[nH]n(C)c(=O)c12 [Compound I-84]"
readout = "Kd"
val = "1 to 10 nM"

[[record]]
molecule = "Cn1[nH]c2nc(Nc3ccc(C4CC4)cn3)cc(Nc3ccccc3S(C)(=O)=O)c2c1=O [Compound I-143]"
readout = "Kd"
val = "0.1 to 0.5 nM"

[[record]]
molecule = "Cc1cc(Nc2cc(Nc3ccc(C4CC4)cc3S(C)(=O)=O)c3c(=O)n(C)[nH]c3n2)nc(C)n1 [Compound I-206]"
readout = "Kd"
val = "0.5 to 1 nM"

[[record]]
molecule = "COc1c(Cl)cccc1Nc1cc(Nc2cc(CO)ccn2)nc2[nH]n(C)c(=O)c12 [Compound I-101]"
readout = "Kd"
val = "1 to 10 nM"


Moving on to the next molecule.
Data request: Consider the molecule Cn1[nH]c2nc(Nc3cccc(C(F)(F)F)n3)cc(Nc3ccc(C4CC4)cc3S(C)(=O)=O)c2c1=O [Compound I-215] and give its measured Kd.
Data returned: 0.1 to 0.5 nM
